# SYSTEM TESTED: FL_Reg1 (full-length human Regnase-1) phosphorylation by IKKβ (Homo sapiens, UniProt Q5D1E8)
# Construct: made in house; host or cells: Expi293 cells
# Sequence (Q5D1E8 whole entry): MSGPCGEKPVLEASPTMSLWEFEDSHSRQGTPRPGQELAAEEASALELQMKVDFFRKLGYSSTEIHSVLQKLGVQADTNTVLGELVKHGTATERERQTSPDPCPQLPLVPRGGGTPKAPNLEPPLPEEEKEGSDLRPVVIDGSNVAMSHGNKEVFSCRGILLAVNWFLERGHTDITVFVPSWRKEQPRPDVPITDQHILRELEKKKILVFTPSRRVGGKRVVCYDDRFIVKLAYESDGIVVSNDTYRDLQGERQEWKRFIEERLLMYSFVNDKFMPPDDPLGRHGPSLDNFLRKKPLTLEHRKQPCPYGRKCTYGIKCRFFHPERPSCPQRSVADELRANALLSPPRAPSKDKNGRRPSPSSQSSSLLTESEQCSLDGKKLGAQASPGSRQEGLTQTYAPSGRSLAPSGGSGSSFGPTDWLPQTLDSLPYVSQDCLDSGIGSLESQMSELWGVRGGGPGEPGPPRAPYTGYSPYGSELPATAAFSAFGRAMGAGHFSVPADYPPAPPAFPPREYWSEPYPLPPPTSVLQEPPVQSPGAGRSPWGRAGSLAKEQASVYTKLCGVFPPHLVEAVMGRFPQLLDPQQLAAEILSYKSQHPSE
# ASSAY DETAILS: Regnase-1 phosphorylation inhibition by compounds (AlphaScreen), IKKβ, full-length Regnase-1
# Type: biochemical
# CONDITION: Table 14; phosphorylation by IKKβ; read-out: Phosphorylation inhibition FL_Reg1, 50% inhibition concentration (IKKβ)
Residues, ends and D or L forms follow the SMILES beside them.
READOUT TYPE: pIC50
Answers are plain numbers, as −log10 of the molar value.

The molecule listed as CC[C@H](C)[C@@H]1NC(=O)[C@H](CC(=O)O)NC(=O)[C@H](C)N(C)C(=O)C[C@@H](C(=O)N2CCCC2)NC(=O)[C@H](Cc2ccc(O)cc2)NC(=O)[C@H](CC(=O)O)NC(=O)[C@H](Cc2c[nH]c3ccccc23)NC(=O)[C@H](Cc2ccc(O)cc2)NC(=O)[C@H](CC(=O)O)NC(=O)[C@H](Cc2ccccc2)NC(=O)[C@H](Cc2c[nH]c3ccccc23)NC1=O [PP18] (HELM PEPTIDE1{[meA].D.I.W.F.D.Y.W.D.Y.D.[C1CCN([*:1])C1]}$PEPTIDE1,PEPTIDE1,1:R1-11:R3$$$V2.0) shows pIC50 equal to 6.40
